tested on: S. cerevisiae s288c autofluorescence, flow cytometry MCF, 3 h; experiment: compound autofluorescence in parental yeast s288c, SAR follow-up, artefact control for yeast TOR pathway GFP screen, cherry pick 3, multiplex, flow cytometry (AID 488818); conditions: at 33.3 µM; hits give high values
Each entry falls in a class defined on fluorescence change; the bands are Low = under 0.08, Mid = from 0.08 up to 0.2, High = 0.2 and over

Sample answers from the record:
molecule=N#Cc1c(N)nc(N)nc1Nc1ccc(Br)cc1 assigned_class=Mid
molecule=Oc1ccc(Cl)c2cccnc12 assigned_class=Mid
molecule=CC1=NNC(=O)/C1=C\c1cn(-c2ccccc2)nc1-c1ccc(F)cc1 assigned_class=High
molecule=CCc1sc(C(=O)Nc2nc(-c3ccccn3)cs2)cc1C assigned_class=High
molecule=O=C(Nc1nc(-c2ccccn2)cs1)c1ccccc1-n1cnnn1 assigned_class=Low
molecule=Cc1ccc2c(Cl)cc(Cl)c(O)c2n1 assigned_class=High
molecule=O=C(O)c1ccc2cccc(O)c2n1 assigned_class=Mid
molecule=CNc1nc(C)c([N+](=O)[O-])c(Nc2ccc(OC)cc2)n1 assigned_class=Low
molecule=COc1ccccc1-c1cc(C(F)(F)F)nc(S(=O)(=O)CCCC(=O)O)n1 assigned_class=High
molecule=Cc1cccc(C)c1Nc1ncnc(N)c1[N+](=O)[O-] assigned_class=Mid

Lookup: Textbook exercise: identify the category of the molecule given here, CCC(C)Nc1nc(N)c([N+](=O)[O-])c(Nc2ccccc2OC)n1 (configuration not stated) , according to its measured value.
Found: Low
